These data points were gathered from PubChem BioAssay (NCI).

The reader will find reported TGI values listed item by item below.
Test system: DU-145 prostate
procedure.text: NCI tumour cell line growth inhibition, 48 h
assay.metric: TGI (µM)

- compound: "O=C(Nc1cccc(-n2cc(-c3ccncc3)c(-c3ccc(O)c(Cl)c3)n2)c1)Nc1cccc(C(F)(F)F)c1"
  op: "="
  meas.value: 11.8
- compound: "CCSc1nc(N)c2c(-c3ccccc3)c3c(nc2n1)CCC3"
  op: ">"
  meas.value: 100
- compound: "Oc1ccc(O)c(CNc2ccccc2)c1"
  op: "="
  meas.value: 32.2
- compound: "C#CC(O)/C=C/C(O)CCCC(O)CC#CC(O)C#CC(O)CCCC(O)/C=C/CCCC(=O)CCCCCCCCCCCCCCCC(O)C(O)C#CC(=O)O (stereo not given)"
  op: ">"
  meas.value: 50
- compound: "O=C1ON=C2C3CC4CC12CC1(C3)C(=O)ON=C41"
  op: ">"
  meas.value: 100

----------
System: RPMI-8226 leukemia
procedure.text: NCI tumour cell line growth inhibition, 48 h; in the data active means GI50 below about 0.43 µM; inactive means the rest
*1 amine or outer side, *2 acyl side, *3 side chain or, on linkers, in order; H or OH if unused. Where a SMILES comes first, the peptide text is derived from it. [ ]: non-standard residue; d: D form. X56 = CC[C@H](C)[C@H](OC(=O)[C@@H](C)[C@@H](CC)N[*:1])C(=O)[*:2]; X32 = C[C@H](N[*:1])C(=O)C(C)(C)C(=O)[*:2]; NMeY = CN[C@@H](Cc1ccc(O)cc1)C(=O)O; NMeL = CN[C@@H](CC(C)C)C(=O)O; NMeV = CN[C@H](C(=O)O)C(C)C
Labels: y = active, n = inactive

- compound: "O=C(Nc1ccccc1)Nc1cccc(Oc2nnc(Cl)c3ccccc23)c1"
  answer.label: "n"
- compound: "C=C1C(=O)O[C@H]2[C@H]1CC/C(COC(=O)c1ccccc1)=C\\CC[C@@]1(C)O[C@@H]21"
  answer.label: "y"
- compound: "N#C/C(=C\\c1ccc(Br)cc1)n1nnc2ccccc21"
  answer.label: "n"
- compound: "C=C1C(=O)O[C@H]2[C@H]1CC/C(Cn1cc(-c3cc(C)c(C)cc3C)nn1)=C\\CC[C@@]1(C)O[C@@H]21"
  answer.label: "n"
- compound: "COc1ccccc1/C=C/C(=O)/C=C/c1ccccc1OC"
  answer.label: "n"
- compound: "OCc1ccc(N(CCN2CCCC2)Cc2ccc(F)cc2)cc1Cl"
  answer.label: "n"
- compound: "Oc1ccc(C#CCOc2ccccc2)cc1CNCCN(Cc1ccccn1)Cc1ccccn1"
  answer.label: "n"
- compound: "O=C(COc1cccc(/C=C2\\CSc3ccccc3C2=O)c1)c1ccc(Cl)cc1"
  answer.label: "n"
- compound: "OCC(O)C(O)C(O)/C=N/Nc1nc2ccccc2nc1-c1ccccc1 (centres undefined)"
  answer.label: "n"
- compound: "O=C1CCS/C(=N\\S(=O)(=O)c2ccc(N3N=C4c5ccccc5CC4C3c3cccs3)cc2)N1C(=O)c1ccccc1 (centres undefined)"
  answer.label: "n"
- compound: "NC(=O)c1ccc2nc3c(n2c1)C(=O)C(=O)c1ccccc1-3"
  answer.label: "n"
- compound: "NC1=Nc2cc(OCCCN3Cc4ccccc4C3)c(OCC3CC3)cc2C12CCCC2"
  answer.label: "n"
- compound: "C1=Nc2ccccc2C=Nc2ccccc2C=Nc2ccccc2C=Nc2ccccc21.[Cl-].[Pt+2]"
  answer.label: "n"
- compound: "C=C1C[C@@]2(C)C(CC[C@]3(C)C2CC=C2C4CC(C)(C)C[C@@H](OC(=O)/C(C)=C\\C)[C@]4(C(=O)O)CC[C@]23C)C(C)(C)C1=O (some centres undefined)"
  answer.label: "n"
- compound: "C1COCCOCCOCCOCCO1.CC(=O)[CH-]C(C)=O.CC(=O)[CH-]C(C)=O.CC(=O)[CH-]C(C)=O.[V]"
  answer.label: "n"
- compound: "CC(C)Nc1ncc2cc(Oc3ccc(F)cc3F)c(=O)n(C)c2n1"
  answer.label: "n"
- compound: "Cc1ccc(Sc2sc(-c3ccccc3)nc2[P+](c2ccccc2)(c2ccccc2)c2ccccc2)cc1"
  answer.label: "y"
- compound: "CC[C@H](C)[C@@H]1OC(=O)[C@@H](C)[C@@H](CC)NC(=O)[C@H](C)NC(=O)C(C)(C)C(=O)[C@H](C)NC(=O)[C@H](Cc2ccc(OC)cc2)N(C)C(=O)[C@H](C(C)C)N(C)C(=O)CNC(=O)[C@H](CC(C)C)N(C)C(=O)CNC1=O (cyclo(A[X56]G[NMeL]G[NMeV][NMeY](Me)[X32]))"
  answer.label: "y"
- compound: "COc1cc(OC)c(C(=O)/C=C/c2cccc(OC(C)=O)c2)cc1CC=C(C)C"
  answer.label: "n"
